Data provenance: paper PMC3217094

# target_under_test: AGT (Homo sapiens, UniProt P16455)
# assay_summary: Binding of free dye to AGT detected by fluorescence anisotropy
pKd: −log10 of the molar value.
readout_kind: pKd

>  <molecule>
O=S(=O)(O)c1cccc2c(-c3ccc(Nc4ccccc4)c4c(S(=O)(=O)O)cccc34)ccc(Nc3ccccc3)c12 [Bis-ANS]

>  <readout_kind>
pKd

>  <reported_value>
4.48

$$$$

###

# target_under_test: benzyl-AGT (Homo sapiens, UniProt P16455, A204H/G205H/N207H/P202H/P203H/R206H)
# Sequence (P16455 with tags, fused parts or gaps): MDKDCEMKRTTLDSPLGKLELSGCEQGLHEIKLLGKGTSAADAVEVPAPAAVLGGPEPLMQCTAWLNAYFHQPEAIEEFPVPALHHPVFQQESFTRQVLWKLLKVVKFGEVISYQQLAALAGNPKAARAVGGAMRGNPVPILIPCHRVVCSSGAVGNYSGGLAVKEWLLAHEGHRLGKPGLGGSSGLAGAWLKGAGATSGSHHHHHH
# assay_summary: Binding of FAM to benzyl-AGT detected by fluorescence anisotropy
readout_kind: Kd (µM)

>  <given_smiles>
O=C(O)c1ccc(C(=O)O)c(-c2c3ccc(=O)cc-3oc3cc(O)ccc23)c1

>  <unit_text>
µM

>  <reported_value>
82.2

$$$$

###

# target_under_test: AGT (Homo sapiens, UniProt P16455)
# Sequence (P16455 with tags, fused parts or gaps limits assumed): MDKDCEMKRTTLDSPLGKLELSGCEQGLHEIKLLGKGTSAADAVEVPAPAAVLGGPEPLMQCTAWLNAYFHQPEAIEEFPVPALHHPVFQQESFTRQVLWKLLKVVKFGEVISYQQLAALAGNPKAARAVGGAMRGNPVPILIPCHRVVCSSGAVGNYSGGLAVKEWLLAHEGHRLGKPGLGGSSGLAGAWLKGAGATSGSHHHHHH
# assay_summary: DNA alkyltransferase assay
# Format: biochemical
pIC50: −log10 of the molar value.

>  <molecule>
Nc1nc2c(ncn2[C@@H]2O[C@H](COP(=O)(O)O)[C@@H](O)[C@H]2O)c(=O)[nH]1 [5′-GMP, guanosine 5′ monophosphate]

>  <pIC50>
4.46

$$$$
>  <molecule>
O=S(=O)(O)c1cccc2c(-c3ccc(Nc4ccccc4)c4c(S(=O)(=O)O)cccc34)ccc(Nc3ccccc3)c12

>  <pIC50>
4.31

$$$$
>  <molecule>
Cc1ccc2c(c1)sc(-c1ccc(N(C)C)cc1)[n+]2C

>  <pIC50>
3.66

$$$$

###

Listing of recorded Stoichiometry of saturated AGT-DNA complex by entry.
# target_under_test: AGT (Homo sapiens, UniProt P16455)
# Sequence (P16455 with tags, fused parts or gaps limits assumed): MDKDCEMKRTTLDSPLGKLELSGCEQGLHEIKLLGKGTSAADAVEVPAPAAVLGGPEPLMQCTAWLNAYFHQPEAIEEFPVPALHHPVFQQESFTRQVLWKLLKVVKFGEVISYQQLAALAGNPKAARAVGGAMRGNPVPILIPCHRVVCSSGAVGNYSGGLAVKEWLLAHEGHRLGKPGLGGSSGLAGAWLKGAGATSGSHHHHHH
# assay_summary: Sedimentation equilibrium analysis of AGT-DNA complexes
# Format: binding
# cond: mean ± SEM for ≥3 determinations, 4°C
{FAM} = fluorescein (FAM) label
readout_kind: Stoichiometry of saturated AGT-DNA complex

>  <substance>
5′-(FAM)-26-mer Oligo F: 5′- (FAM)AGTCAGTCAGTCAGTCAGTCAGTCAG -3′ (DNA AGTCAGTCAGTCAGTCAGTCAGTCAG; DNA, 5' {FAM}, backbone not given here)

>  <reported_value>
6.59

$$$$
>  <substance>
3′-(FAM)-26-mer Oligo F: 5′- AGTCAGTCAGTCAGTCAGTCAGTCAG(FAM) -3′ (DNA AGTCAGTCAGTCAGTCAGTCAGTCAG; DNA, 3' {FAM}, backbone not given here)

>  <reported_value>
6.38

$$$$
>  <substance>
Unmodified 16-mer Oligo A: 5′- AGT CAG TCA GTC AGT C -3′ (DNA AGTCAGTCAGTCAGTC; unmodified DNA)

>  <reported_value>
3.86

$$$$
>  <substance>
Unmodified 26-mer: 5′- AGTCAGTCAGTCAGTCAGTCAGTCAG -3′ (DNA AGTCAGTCAGTCAGTCAGTCAGTCAG; unmodified DNA)

>  <reported_value>
5.89

$$$$

###

# target_under_test: AGT (Homo sapiens)
# assay_summary: Mobility shift assay: inhibition of AGT DNA binding
# cond: IC50 for inhibition of DNA binding, electrophoretic analysis, approximate value
pIC50: −log10 of the molar value.

>  <molecule>
O=C(O)c1ccc(C(=O)O)c(-c2c3ccc(=O)cc-3oc3cc(O)ccc23)c1 [FAM, 6-Carboxyfluorescein]

>  <pIC50>
~4.12

$$$$

###

# target_under_test: UniProt:P16455
# assay_summary: Mobility shift assay: inhibition of AGT DNA binding
# cond: IC50 for inhibition of DNA binding, duplex 24mer 0.17μM, AGT 3.9μM, 20°C
pIC50: −log10 of the molar value.

>  <given_smiles>
O=C(O)c1ccc(C(=O)O)c(-c2c3ccc(=O)cc-3oc3cc(O)ccc23)c1

>  <pIC50>
4.12

$$$$
